- assayProcedure: Cell viability assay
- Type: cell-based
- setupConditions: human, HEK-293 cells
quantityMeasured: viability at 24 h, 1 µM (%)
State the answer as a number, implicitly in %.

Item: `O=Cc1ccc(OCc2cc(=O)c(O)co2)cc1F` | viability at 24 h, 1 µM: 97.1

====

- assayProcedure: Cell viability assay
- Type: cell-based
- setupConditions: human, HEK-293 cells
quantityMeasured: viability at 24 h, 16 µM
Provide the measurement as a number trailed by its unit.

Item: `O=Cc1ccc(OCc2cc(=O)c(O)co2)cc1F` | viability at 24 h, 16 µM: 102%

====

- assayProcedure: Cell viability assay
- Assay type: cell-based
- setupConditions: human, HEK-293 cells
quantityMeasured: viability at 24 h, 256 µM (%)
State the answer as a number, implicitly in %.

Item: O=Cc1ccc(OCc2cc(=O)c(O)co2)cc1F [6j] | viability at 24 h, 256 µM: 88.6

Where do the numbers come from? From paper PMC9807860.
